Cited source: patent US11472776B2

Molecular target: recombinant human tau 4R2N (Homo sapiens (Human))
Sequence (P10636 other isoform, or with tags, fused parts or gaps): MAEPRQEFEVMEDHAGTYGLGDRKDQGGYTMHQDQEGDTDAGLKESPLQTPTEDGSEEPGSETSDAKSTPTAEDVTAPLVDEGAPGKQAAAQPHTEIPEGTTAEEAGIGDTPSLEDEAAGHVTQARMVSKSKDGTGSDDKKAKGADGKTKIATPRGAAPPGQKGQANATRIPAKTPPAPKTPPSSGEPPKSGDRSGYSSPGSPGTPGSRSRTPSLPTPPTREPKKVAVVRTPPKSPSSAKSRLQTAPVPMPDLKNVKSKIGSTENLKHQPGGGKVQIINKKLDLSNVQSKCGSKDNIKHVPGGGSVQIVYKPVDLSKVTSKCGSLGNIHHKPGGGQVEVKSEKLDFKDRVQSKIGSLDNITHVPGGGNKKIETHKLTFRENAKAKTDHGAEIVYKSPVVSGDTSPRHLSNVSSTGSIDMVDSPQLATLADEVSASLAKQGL
Assay: Confirmatory Assay (CONFA), SDS-PAGE quantification of tau monomer and oligomers
Assay type: biochemical
Settings: tau target 300 nM, 3 hours at room temperature, compound 0.098 uM-50 uM
Property name: IC50 (µM)
One number for each entry, in µM.

*Q* I'd like to know its IC50. The molecule in question is "CCc1ccc(-n2c(-c3cccnc3)nc3ccccc3c2=O)cc1O"
*A* 4.18
